Quick reference: relative cell viability of the listed items.
# System: HL-1
# protocol notes: relative cell viability (CellTiter-Glo) vs DMSO control (% of DMSO control); higher = more viable cells
# cond: oxygen condition: hypoxia 48 h (1% O2) + reoxygenation 24 h; 1000 nM

{"columns": ["molecule", "relative cell viability"],
 "data": [
  ["CN(C)C(=O)Oc1ccc[n+](C)c1 [Pyridostigmine Bromide]", 103],
  ["C[C@]12CCC(=O)C=C1C=C[C@@H]1[C@@H]2CC[C@@]2(C)[C@H]1CC[C@@]2(O)CCC(=O)O [Potassium Canrenoate]", 97.6],
  ["CN(C)C(=O)Oc1cccc([N+](C)(C)C)c1 [Neostigmine bromide]", 97.4]
]}

* * *

# Test system: HL-1
# protocol notes: relative cell viability (CellTiter-Glo) vs DMSO control (% of DMSO control); higher = more viable cells
# cond: oxygen condition: normoxia 72 h; 40 nM
Structures can show the parent of a compound that is named as a salt.
value type: relative cell viability

{"columns": ["compound", "number"],
 "data": [
  ["O=c1[nH]c2ccccc2n1CCCN1CCC(n2c(=O)[nH]c3cc(Cl)ccc32)CC1", 100],
  ["CN(C)C(=O)Oc1cccc([N+](C)(C)C)c1 [Neostigmine bromide]", 101],
  ["C[C@]12CCC(=O)C=C1C=C[C@@H]1[C@@H]2CC[C@@]2(C)[C@H]1CC[C@@]2(O)CCC(=O)O [Potassium Canrenoate]", 101],
  ["CCC(COC(=O)c1cc(OC)c(OC)c(OC)c1)(c1ccccc1)N(C)C (configuration not stated)", 98.5],
  ["Cc1cccc(C)c1NC(=O)CN1CCCC1=O", 101],
  ["COc1ccc(OC)c(C(O)C(C)N)c1 (configuration not stated) [Methoxamine HCl]", 102],
  ["CN1c2ccccc2C(NCCCCCCC(=O)O)c2ccc(Cl)cc2S1(=O)=O (configuration not stated) [Tianeptine sodium]", 98.8]
]}

* * *

# Tested on: HL-1
# protocol notes: relative cell viability (CellTiter-Glo) vs DMSO control (% of DMSO control); higher = more viable cells
# cond: oxygen condition: hypoxia 48 h (1% O2) + reoxygenation 24 h; 200 nM
Where a name gives a salt, the structure may show the parent alone.
relative cell viability listing for selected molecules.

{"columns": ["molecule", "relative cell viability"],
 "data": [
  ["CC[C@@]1(O)C(=O)OCc2c1cc1n(c2=O)Cc2cc3ccccc3nc2-1", 103],
  ["C[N+]1(C)[C@@H]2C[C@@H](OC(=O)[C@H](CO)c3ccccc3)C[C@H]1[C@@H]1O[C@@H]12", 101],
  ["CC(C)NCC(O)c1ccccc1Cl (centres undefined) [Clorprenaline HCL]", 102],
  ["Cc1cccc(C)c1NC1=NCCCS1 [Xylazine HCl]", 101]
]}
